assay: Toxicity of 5-FU and tumor weight in tumor-bearing CD8FI female mice (Table 2); details: mouse, in vivo, iv, 150 mg/kg
ENDPOINT: Mortality (%)
Answers are plain numbers, in %.

I am curious: what Mortality value has been reported for O=c1[nH]cc(F)c(=O)[nH]1 ?
80

###

assay: Toxicity of 5-FU and tumor weight in tumor-bearing CD8FI female mice (Table 2); settings: mouse, in vivo, iv
ENDPOINT: MTD
Answer shape: numeric part, then the unit.

Recorded MTD for O=c1[nH]cc(F)c(=O)[nH]1 , please?
100 mg/kg
